meta.source: ChEMBL document CHEMBL3817843

- System: Left cardiac atrium
- ASSAY COMMENT: Negative inotropic activity in potassium depolarized guinea pig left atrium assessed as EC50 for nifedipine at 10^-8 M preincubated for 30 mins followed by nifedipine addition
- Assay type: functional
- DETAILS: Cavia porcellus
QUANTITY NAME: pEC50
Schema: pEC50 number; meaning minus log10 of the concentration expressed in molar units.

Form entry - test system: Left cardiac atrium; read-out: pEC50; compound: CCOC1(c2ccc(Br)cc2)SC=C(C)n2c1noc2=O (stereo unspecified) 7.66

* * *

- System: Aorta
- ASSAY COMMENT: Vasorelaxant activity in potassium depolarized guinea pig aorta assessed as inhibition of calcium-induced contraction at 50 uM after 30 mins
- Assay type: functional, Cavia porcellus
- Parameters: scale not given: the % may be the effect or the level left
QUANTITY NAME: Activity (%)
Give the value, in units of %, as a plain number.

Past entries and their recorded results:
[
  {
    "COMPOUND": "COc1ccc(C2(O)SC=C(C)n3c2noc3=O)cc1 (stereo not given)",
    "UNIT NAME": "%",
    "VALUE OBSERVED": 18
  },
  {
    "COMPOUND": "CC1=CSC(O)(c2ccccc2)c2noc(=O)n21 (stereo not given)",
    "UNIT NAME": "%",
    "VALUE OBSERVED": 4
  },
  {
    "COMPOUND": "COc1cccc(C2(O)SC=C(C)n3c2noc3=O)c1 (stereo not given)",
    "UNIT NAME": "%",
    "VALUE OBSERVED": 10
  },
  {
    "COMPOUND": "O=c1onc2n1C=CSC2(O)c1ccccc1 (stereo not given)",
    "UNIT NAME": "%",
    "VALUE OBSERVED": 11
  }
]

Item COc1ccc(C2(O)Sc3ccccc3-n3c2noc3=O)cc1 (stereo not given) has what recorded Activity? 19

* * *

- Test system: Aorta
- ASSAY COMMENT: Vasorelaxant activity in potassium depolarized guinea pig aorta assessed as inhibition of calcium-induced contraction at 10^-4 M after 30 mins
- Assay type: functional, Cavia porcellus
- Set-up: scale not given: the % may be the effect or the level left
Respond with Met for Activity values of 20% and above, Not met for values below.

Use the examples below as a reference point.
[
  {
    "MOLECULE": "COc1ccc(C2(OCC3CCCCC3)SC=C(C)n3c2noc3=O)cc1 (configuration not stated)",
    "DISCRETE LABEL": "Met"
  },
  {
    "MOLECULE": "O=c1onc2n1-c1ccccc1SC2(OCC1CCCCC1)c1ccccc1 (configuration not stated)",
    "DISCRETE LABEL": "Not met"
  },
  {
    "MOLECULE": "CC(C)OC1(c2ccccc2)Sc2ccccc2-n2c1noc2=O (configuration not stated)",
    "DISCRETE LABEL": "Not met"
  },
  {
    "MOLECULE": "COc1ccc(C2(OC(C)C)SC=C(C)n3c2noc3=O)cc1 (configuration not stated)",
    "DISCRETE LABEL": "Not met"
  },
  {
    "MOLECULE": "COc1ccc(C2(OCC(F)(F)F)Sc3ccccc3-n3c2noc3=O)cc1 (configuration not stated)",
    "DISCRETE LABEL": "Not met"
  },
  {
    "MOLECULE": "CC1=CSC(OCC(F)(F)F)(c2ccccc2)c2noc(=O)n21 (configuration not stated)",
    "DISCRETE LABEL": "Met"
  }
]

# bool: Activity of CCOC1(c2ccc(OC)cc2)Sc2ccccc2-n2c1noc2=O (configuration not stated) >= 20% Not met

Has COc1ccccc1C1(O)SC=C(C)n2c1noc2=O (configuration not stated) a recorded Activity greater than or equal to 20%? Met

Answer whether Activity of COc1cccc(C2(OCC(F)(F)F)SC=C(C)n3c2noc3=O)c1 (configuration not stated) is greater than or equal to 20%. Met
